Assay: Half life in Sprague-Dawley rat plasma at 5 mg/kg, po
Assay type: ADME, organism-based
Property Label: half-life (h)
Write down the numeric answer in h and omit the unit.

Request the reported half-life associated with `C[C@]12CC[C@@H]3c4ccc(O)cc4CC[C@H]3[C@@H]1CC[C@@H]2OC(=O)[C@@H]1CCCN1C(=O)c1ccc(S(N)(=O)=O)cc1`
4.58

====

Test: Clearance in Sprague-Dawley rat blood at 1 mg/kg, iv
Assay type: ADME, organism-based
Property Label: clearance (mL/min/kg)
Write down the numeric answer in mL/min/kg and omit the unit.

Request the reported clearance associated with `C[C@]12CC[C@@H]3c4ccc(O)cc4CC[C@H]3[C@@H]1CC[C@@H]2OC(=O)[C@@H]1CCCN1C(=O)c1ccc(S(N)(=O)=O)cc1`
3.86

====

Data export: pIC50 values recorded with Carbonic anhydrase 2 (Homo sapiens, UniProt P00918).
pIC50 here: minus log base 10 of the concentration, concentration in moles per litre.

Some solved cases for reference:
given_smiles=C[C@]12CC[C@@H]3c4ccc(O)cc4CC[C@H]3[C@@H]1CC[C@@H]2OC(=O)[C@H](Cc1ccccc1)NC(=O)c1ccc(S(N)(=O)=O)cc1 property_label=pIC50 quantitative_result=7.00
given_smiles=C[C@@H](C(=O)O[C@H]1CC[C@H]2[C@@H]3CCc4cc(O)ccc4[C@H]3CC[C@]12C)N(C)C(=O)c1ccc(S(N)(=O)=O)cc1 property_label=pIC50 quantitative_result=6.49

Request the reported pIC50 associated with `CC(C)(NC(=O)c1ccc(S(N)(=O)=O)cc1)C(=O)O[C@H]1CC[C@H]2[C@@H]3CCc4cc(O)ccc4[C@H]3CC[C@]12C`
6.63

====

The entries below come with measured Activity values attached.
System: Rattus norvegicus
Test: Estrogenic effect in ovariectomized adult female Wistar rat assessed as uterine weight level at 1 ug, po dosed from day 1 to 3 and measured on day 4 relative to untreated control
Assay type: functional
Write down the numeric answer in % and omit the unit.

Some solved cases for reference:
given_smiles=C[C@@H](C(=O)O[C@H]1CC[C@H]2[C@@H]3CCc4cc(O)ccc4[C@H]3CC[C@]12C)N(C)C(=O)c1ccc(S(N)(=O)=O)cc1 quantitative_result=145
given_smiles=C[C@]12CC[C@@H]3c4ccc(O)cc4CC[C@H]3[C@@H]1CC[C@@H]2OC(=O)[C@H](Cc1ccccc1)NC(=O)c1ccc(S(N)(=O)=O)cc1 quantitative_result=95
given_smiles=CC(C)(NC(=O)c1ccc(S(N)(=O)=O)cc1)C(=O)O[C@H]1CC[C@H]2[C@@H]3CCc4cc(O)ccc4[C@H]3CC[C@]12C quantitative_result=107
given_smiles=C[C@]12CC[C@@H]3c4ccc(O)cc4CC[C@H]3[C@@H]1CC[C@@H]2OC(=O)[C@@H]1CCCN1C(=O)c1ccc(S(N)(=O)=O)cc1 quantitative_result=244

# context switch: different compound, same Activity
Request the reported Activity associated with `CC(C)[C@H](NC(=O)c1ccc(S(N)(=O)=O)cc1)C(=O)O[C@H]1CC[C@H]2[C@@H]3CCc4cc(O)ccc4[C@H]3CC[C@]12C`
105
